Test: compounds altering viability of human ES cells (AID 493140);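 also: cells exposed to compounds for four days before counting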
Conditions: human embryonic stem cell survival screen; hits give high values
Label condition met when survival is at or above 10; anything below gets condition not met.

compound | qualitative-label
CCCCCC(O)/C=C/C=C\CCCCCCCC(=O)O (stereo not drawn) | condition met
CC(=O)O[C@H]1C(=O)[C@@]2(C)[C@H](O)C[C@@H]3OC[C@]3(OC(C)=O)[C@@H]2[C@@H](OC(=O)c2ccccc2)[C@@]2(O)C[C@@H](OC(=O)[C@@H](O)[C@H](NC(=O)c3ccccc3)c3ccccc3)C(C)=C1C2(C)C | condition not met
N#CC(C#N)=C(N)/C(C#N)=C/c1ccc2[nH]ccc2c1 | condition met
COc1c(O[C@@H]2O[C@H](CO)[C@@H](O)[C@H](O)[C@H]2O)cc2c(c1OC)-c1ccc(SC)c(=O)cc1C(NC(C)=O)CC2 (stereo partly drawn) | condition not met
CCCCCCCCCCCCC/C=C/[C@@H](O)[C@H](COP(=O)([O-])OCC[N+](C)(C)C)NC(=O)CCCCCCCCCCCCCCCCC | condition met
CC(=O)O[C@]1(C(C)=O)CC[C@H]2[C@@H]3C=C(Cl)C4=CC(=O)C5CC5[C@]4(C)[C@H]3CC[C@@]21C (stereo partly drawn) | condition met
CCCCC[C@H](O)/C=C/[C@@H]1[C@@H](C/C=C\CCCC(=O)O)[C@@H](O)C[C@@H]1O | condition met
CN1[C@@H]2CC[C@H]1CC(OC(=O)[C@@H](CO)c1ccccc1)C2 (stereo partly drawn) | condition met
